B1: Osa-1-4 twister ribozyme (parent)
chain: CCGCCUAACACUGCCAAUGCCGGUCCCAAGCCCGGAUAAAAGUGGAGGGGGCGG

# Variants of: B1
# method: self-cleavage, relative activity (ratio to wild type); higher = more cleavage; co-transcriptional
readout_name: self-cleavage
When you answer, write just the number.

Answered cases to consult:
variant	self-cleavage
A36C G54U	0.55
A36U G48U	0.08
A41U C9G	0.79

Input line: # input variant: G19A G53C ; wanted: its self-cleavage
Output line: 0.09

Input line: Now the variant A40U A7C
Output line: 0.04

Input line: Please do the same for C11A G51C as well.
Output line: 0.04

Input line: Also check G23C U12C
Output line: 0.04

Input line: Would you kindly repeat that for G50U U43A ?
Output line: 0.92

Input line: Do the same for A8C G53U please
Output line: 0.06
